tested-on: T1, hCD112R mFC recombinant protein (human; murine, UniProt Q6DKI7 41-160)
T1 construct: range 41-160; expressed in 293E cells; also called hCD112R ECD mFC; hCD112R-ECD-mFC; not shown: murine IgG2a Fc domain (MX2-mFc vector)
T1 sequence (looked up): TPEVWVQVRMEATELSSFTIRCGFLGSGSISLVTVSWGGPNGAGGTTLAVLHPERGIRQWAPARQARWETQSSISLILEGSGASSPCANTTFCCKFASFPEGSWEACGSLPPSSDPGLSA
protocol-text: ELISA, coated hCD112R-ECD-mFC; EC50 COM701/EC50 antibody
result-type: Relative activity (%)
Supply the numeric figure in %, leaving out any unit text.

Examples from the recorded data:
>>> endpoint_result("Hu35 (antibody, IgG4, V domains shown, humanized IgG4) VH: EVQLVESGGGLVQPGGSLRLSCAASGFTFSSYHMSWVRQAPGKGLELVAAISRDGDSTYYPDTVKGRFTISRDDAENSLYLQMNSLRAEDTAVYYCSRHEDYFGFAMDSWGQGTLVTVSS VL: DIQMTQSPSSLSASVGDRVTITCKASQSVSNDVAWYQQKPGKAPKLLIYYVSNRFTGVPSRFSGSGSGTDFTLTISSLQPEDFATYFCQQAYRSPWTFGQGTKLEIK")
136
>>> endpoint_result("Hu29 (antibody, IgG4, V domains shown, humanized IgG4) VH: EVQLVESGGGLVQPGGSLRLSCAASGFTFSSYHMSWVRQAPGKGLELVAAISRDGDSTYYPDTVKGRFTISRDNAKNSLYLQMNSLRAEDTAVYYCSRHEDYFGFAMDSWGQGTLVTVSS VL: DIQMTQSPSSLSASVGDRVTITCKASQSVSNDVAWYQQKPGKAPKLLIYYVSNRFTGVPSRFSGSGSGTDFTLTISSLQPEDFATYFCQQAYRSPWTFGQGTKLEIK")
147
>>> endpoint_result("Hu60 (antibody, IgG4, V domains shown, humanized IgG4) VH: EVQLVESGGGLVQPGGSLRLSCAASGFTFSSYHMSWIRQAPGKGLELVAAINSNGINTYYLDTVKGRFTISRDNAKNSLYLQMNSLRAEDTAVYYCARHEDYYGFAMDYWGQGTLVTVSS VL: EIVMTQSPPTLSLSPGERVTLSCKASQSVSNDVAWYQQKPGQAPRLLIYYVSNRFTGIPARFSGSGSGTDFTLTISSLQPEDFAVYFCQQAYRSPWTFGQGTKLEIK")
139
>>> endpoint_result("Hu23 (antibody, IgG4, V domains shown, humanized IgG4) VH: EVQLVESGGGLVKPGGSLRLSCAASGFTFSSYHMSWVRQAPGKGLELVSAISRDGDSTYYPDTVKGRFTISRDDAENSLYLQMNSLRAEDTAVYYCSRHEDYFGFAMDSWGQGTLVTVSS VL: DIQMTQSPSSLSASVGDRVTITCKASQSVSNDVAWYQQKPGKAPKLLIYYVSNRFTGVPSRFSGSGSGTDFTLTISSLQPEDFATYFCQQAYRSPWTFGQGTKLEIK")
153
>>> endpoint_result("Hu2 (antibody, IgG4, V domains shown, humanized IgG4; also called Hu-02) VH: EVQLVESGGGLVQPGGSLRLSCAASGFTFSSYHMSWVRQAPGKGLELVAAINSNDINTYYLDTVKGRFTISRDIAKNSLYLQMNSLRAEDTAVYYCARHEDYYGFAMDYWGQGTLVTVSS VL: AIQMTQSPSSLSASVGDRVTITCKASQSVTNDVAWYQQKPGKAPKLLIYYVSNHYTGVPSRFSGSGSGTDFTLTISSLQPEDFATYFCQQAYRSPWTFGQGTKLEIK")
141

Tell me the measured Relative activity (%) of Hu33 (antibody, IgG4, V domains shown, humanized IgG4) VH: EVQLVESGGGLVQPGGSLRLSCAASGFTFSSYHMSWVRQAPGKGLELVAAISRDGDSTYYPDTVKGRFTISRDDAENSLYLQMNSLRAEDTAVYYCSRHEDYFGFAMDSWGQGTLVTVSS VL: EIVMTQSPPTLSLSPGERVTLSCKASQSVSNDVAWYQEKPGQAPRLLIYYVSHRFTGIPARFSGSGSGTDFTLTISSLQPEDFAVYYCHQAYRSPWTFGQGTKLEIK , please. 174

Tell me the measured Relative activity (%) of Hu3 (antibody, IgG4, V domains shown, humanized IgG4; also called Hu-03) VH: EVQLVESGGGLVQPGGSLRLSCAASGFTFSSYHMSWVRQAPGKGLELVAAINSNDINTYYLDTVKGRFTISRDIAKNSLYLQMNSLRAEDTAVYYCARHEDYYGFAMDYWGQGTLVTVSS VL: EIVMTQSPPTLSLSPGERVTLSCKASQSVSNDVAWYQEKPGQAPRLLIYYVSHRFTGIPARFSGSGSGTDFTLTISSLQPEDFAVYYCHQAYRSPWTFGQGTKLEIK , please. 120

Tell me the measured Relative activity (%) of Hu17 (antibody, IgG4, V domains shown, humanized IgG4) VH: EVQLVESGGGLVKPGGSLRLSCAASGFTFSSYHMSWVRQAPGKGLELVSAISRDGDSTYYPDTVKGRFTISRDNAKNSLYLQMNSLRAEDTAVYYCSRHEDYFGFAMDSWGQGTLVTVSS VL: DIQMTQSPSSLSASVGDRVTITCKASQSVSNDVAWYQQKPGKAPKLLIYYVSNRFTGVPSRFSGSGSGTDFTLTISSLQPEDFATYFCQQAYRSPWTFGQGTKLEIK , please. 136

Tell me the measured Relative activity (%) of Hu13 (antibody, IgG4, V domains shown, humanized IgG4) VH: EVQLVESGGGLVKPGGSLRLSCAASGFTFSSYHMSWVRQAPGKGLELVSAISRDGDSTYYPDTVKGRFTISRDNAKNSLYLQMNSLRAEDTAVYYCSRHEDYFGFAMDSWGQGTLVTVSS VL: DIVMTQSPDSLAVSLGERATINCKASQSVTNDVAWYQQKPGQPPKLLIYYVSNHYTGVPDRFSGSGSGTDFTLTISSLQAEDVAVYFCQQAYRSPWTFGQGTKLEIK , please. 132

Tell me the measured Relative activity (%) of Hu32 (antibody, IgG4, V domains shown, humanized IgG4) VH: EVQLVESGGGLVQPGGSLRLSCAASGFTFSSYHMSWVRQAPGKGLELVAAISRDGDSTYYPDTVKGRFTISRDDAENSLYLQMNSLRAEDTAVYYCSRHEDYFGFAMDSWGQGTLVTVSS VL: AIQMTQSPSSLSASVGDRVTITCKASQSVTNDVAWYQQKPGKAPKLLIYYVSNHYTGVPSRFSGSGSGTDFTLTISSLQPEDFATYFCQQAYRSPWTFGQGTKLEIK , please. 150
